# condition_info: in acetone, 318.2 K
metric: solubility (mole fraction)
Please respond with just the number, no unit label.

solubility (mole fraction) reading for `C=C(C)[C@@H]1CC[C@]2(CO)CC[C@]3(C)[C@H](CC[C@@H]4[C@@]5(C)CC[C@H](O)C(C)(C)[C@@H]5CC[C@]43C)[C@@H]12` : 0.00243

----------
# condition_info: in acetone, 288.2 K
metric: solubility (mole fraction)
Please respond with just the number, no unit label.

solubility (mole fraction) reading for `C=C(C)[C@@H]1CC[C@]2(CO)CC[C@]3(C)[C@H](CC[C@@H]4[C@@]5(C)CC[C@H](O)C(C)(C)[C@@H]5CC[C@]43C)[C@@H]12` : 0.00101

----------
# condition_info: in acetone, 308.2 K
metric: solubility (mole fraction)
Please respond with just the number, no unit label.

solubility (mole fraction) reading for `C=C(C)[C@@H]1CC[C@]2(CO)CC[C@]3(C)[C@H](CC[C@@H]4[C@@]5(C)CC[C@H](O)C(C)(C)[C@@H]5CC[C@]43C)[C@@H]12` : 0.00203

----------
# condition_info: in ethanol, 318.2 K
metric: solubility (mole fraction)
Please respond with just the number, no unit label.

solubility (mole fraction) reading for `C=C(C)[C@@H]1CC[C@]2(CO)CC[C@]3(C)[C@H](CC[C@@H]4[C@@]5(C)CC[C@H](O)C(C)(C)[C@@H]5CC[C@]43C)[C@@H]12` : 0.00135

----------
# condition_info: in ethanol, 278.2 K
metric: solubility (mole fraction)
Please respond with just the number, no unit label.

solubility (mole fraction) reading for `C=C(C)[C@@H]1CC[C@]2(CO)CC[C@]3(C)[C@H](CC[C@@H]4[C@@]5(C)CC[C@H](O)C(C)(C)[C@@H]5CC[C@]43C)[C@@H]12` : 0.000842

----------
# condition_info: in ethanol, 298.2 K
metric: solubility (mole fraction)
Please respond with just the number, no unit label.

solubility (mole fraction) reading for `C=C(C)[C@@H]1CC[C@]2(CO)CC[C@]3(C)[C@H](CC[C@@H]4[C@@]5(C)CC[C@H](O)C(C)(C)[C@@H]5CC[C@]43C)[C@@H]12` : 0.00107
